# key: entry, value: SI50
Tested on: BK virus (BKV), Gardner strain
Design: unit not given beside the values

Example results:
{"compound": "CC(C)(C)C(=O)SCCOP(=O)(OCCSC(=O)C(C)(C)C)OCC1=CC(O)C(n2cnc3c(=O)[nH]c(N)nc32)O1 (stereo not drawn) [SATE-ddhG]", "assayed_system": "BK virus (BKV), Gardner strain", "SI50": ">28"}
{"compound": "CC(C)(C)C(=O)SCCOP(=O)(OCCSC(=O)C(C)(C)C)OCC1=CC(O)C(n2ccc(=O)[nH]c2=O)O1 (stereo not drawn) [SATE-ddhU]", "assayed_system": "BK virus (BKV), Gardner strain", "SI50": ">7"}
{"compound": "CC(C)(C)C(=O)SCCOP(=O)(OCCSC(=O)C(C)(C)C)OCC1=CC(O)C(n2cnc3c(=O)[nH]cnc32)O1 (stereo not drawn) [SATE-ddhI]", "assayed_system": "BK virus (BKV), Gardner strain", "SI50": ">1"}
{"compound": "CC(C)(C)C(=O)SCCOP(=O)(OCCSC(=O)C(C)(C)C)OCC1=CC(O)C(n2ccc(N)nc2=O)O1 (stereo not drawn) [SATE-ddhC]", "assayed_system": "BK virus (BKV), Gardner strain", "SI50": ">2"}
{"compound": "Nc1ccn(C[C@@H](CO)OCP(=O)(O)O)c(=O)n1 [CDV, Cidofovir, reference compound]", "assayed_system": "BK virus (BKV), Gardner strain", "SI50": ">35"}

Next compound, SI50 to be filled in.
Report SI50 under test system BK virus (BKV), Gardner strain for CC(C)(C)C(=O)SCCOP(=O)(OCCSC(=O)C(C)(C)C)OCC1=CC(O)C(n2cnc3c(N)ncnc32)O1 (stereo not drawn) [SATE-ddhA] .
<3

* * *

System: Zika virus
readout_type: EC50

Report EC50 from Zika virus testing of O=c1ccn([C@@H]2OC(CO)=C[C@H]2O)c(=O)[nH]1
> 1500 µM

* * *

We begin with a simple list: items and their reported half-life at 0.75 µM.
procedure_summary: in vitro
condition_parameters: both, human, plasma

{"compound": "CCCCCCCCCCCCCCCCOCCCOP(=O)(O)OCC1=CC(O)C(n2ccc(=O)[nH]c2=O)O1 (stereo not drawn)", "half-life at 0.75 µM": "> 9.32 h"}
{"compound": "CC(C)[N+](C)(CCOC(=O)C1c2ccccc2Oc2ccccc21)C(C)C", "half-life at 0.75 µM": "0.28 h"}

Please examine the following record next.
Find the measured half-life at 0.75 µM of CCCCCCCCCCCCCCCCOCCCOP(=O)(O)OCC1=C[C@H](O)[C@H](n2cnc3c(=O)[nH]c(N)nc32)O1 and report it.
> 9.32 h

* * *

Each record here notes measured pEC50.
Test system: Japanese encephalitis virus (JEV)
procedure_summary: microbe, parasite or virus in culture
condition_parameters: Vero 76
pEC50: −log10 of the molar value.

{"compound": "Nc1nc2c(ncn2[C@@H]2OC(CO)=CC2O)c(=O)[nH]1 (some centres unmarked)", "readout_type": "pEC50", "result_value": "< 2.70"}

Pending compound:
Supply recorded pEC50 for Nc1ccn([C@@H]2OC(CO)=C[C@H]2O)c(=O)n1 [AB21650, 3′-deoxy-3′,4′-didehydro cytidine] here.
< 2.70

* * *

procedure_summary: in vitro
condition_parameters: African green monkey
readout_type: CC50

Give reported CC50 value for Nc1nc2c(ncn2[C@@H]2OC(CO)=CC2O)c(=O)[nH]1 (stereo partly shown)
> 2000 µM

* * *

System: JC virus (JCV)
procedure_summary: Secondary JCV assay (qPCR), COS7 cells
condition_parameters: secondary JCV assay, COS7 cells, 7 days, qPCR; test drug concentration 0.001-100 μM
readout_type: pEC50
To interpret pEC50, take it as minus log10 of a concentration measured in moles per litre.

Provide one value: measured pEC50 of CCC(CC)COC(=O)[C@H](C)N[P@](=O)(OCC1=CC(O)C(n2ccc(=O)[nH]c2=O)O1)Oc1ccccc1 (some centres unmarked) [AB23031]
4.03

* * *

Tested on: enterovirus-68 (EV-68)
readout_type: CC50
Answers without a unit are incomplete; give the number and then its unit.

Please tell me the measured CC50 for O=c1ccn([C@@H]2OC(CO)=C[C@H]2O)c(=O)[nH]1 ; system: enterovirus-68 (EV-68).
390 µM

* * *

# SI50 (SI) per entry
Test system: enterovirus-68 (EV-68, US/DY/14-18953)
condition_parameters: EV-68; SI = CC50/EC50
Give only the figure.

As a guide, the following entries are already answered.
{"compound": "CC(C)(C)C(=O)SCCOP(=O)(OCCSC(=O)C(C)(C)C)OCC1=CC(O)C(n2cnc3c(=O)[nH]c(N)nc32)O1 (stereo not drawn) [SATE-ddhG]", "SI50 (SI)": 0}
{"compound": "CC(C)(C)C(=O)SCCOP(=O)(OCCSC(=O)C(C)(C)C)OCC1=CC(O)C(n2ccc(=O)[nH]c2=O)O1 (stereo not drawn) [SATE-ddhU]", "SI50 (SI)": 0}
{"compound": "CC(C)(C)C(=O)SCCOP(=O)(OCCSC(=O)C(C)(C)C)OCC1=CC(O)C(n2cnc3c(N)ncnc32)O1 (stereo not drawn) [SATE-ddhA]", "SI50 (SI)": 0}

State, for enterovirus-68 (EV-68, US/DY/14-18953), measured SI50 (SI) of the compound listed here: CC(C)(C)C(=O)SCCOP(=O)(OCCSC(=O)C(C)(C)C)OCC1=CC(O)C(n2cnc3c(=O)[nH]cnc32)O1 (stereo not drawn) [SATE-ddhI]
0

Provide enterovirus-68 (EV-68, US/DY/14-18953) SI50 (SI) reading for CC(C)S(=O)(=O)n1c(N)nc2ccc(/C(=N/O)c3ccccc3)cc21 .
46

Provide SI50 (SI), system enterovirus-68 (EV-68, US/DY/14-18953), entry CC(C)(C)C(=O)SCCOP(=O)(OCCSC(=O)C(C)(C)C)OCC1=CC(O)C(n2ccc(N)nc2=O)O1 (stereo not drawn) [SATE-ddhC]
0

* * *

System: adenovirus-5 (Ad5)
condition_parameters: human
readout_type: CC50

Item Nc1ccn([C@@H]2OC(CO)=C[C@H]2O)c(=O)n1 [AB21650, 3′-deoxy-3′,4′-didehydro cytidine] : provide CC50
> 2 mM

* * *

System: HFF cells
procedure_summary: Cell proliferation assay, human foreskin fibroblast (HFF) cells
Format: cell-based
condition_parameters: 72 h, cell number
pIC50: −log10 of the molar value.
readout_type: pIC50

Note down pIC50 recorded for CCC(CC)COC(=O)[C@H](C)N[P@](=O)(OCC1=CC(O)C(n2ccc(=O)[nH]c2=O)O1)Oc1ccccc1 (stereo partly shown)
< 4.00

* * *

procedure_summary: in vivo
condition_parameters: male, Sprague-Dawley, rat, iv, 10 mg/kg
readout_type: concentration at 0.5 h
Quick note: unit goes after the number.

{"compound": "CCCCCCCCCCCCCCCCOCCCOP(=O)(O)OCC1=C[C@H](O)[C@H](n2cnc3c(=O)[nH]c(N)nc32)O1 [AB23040]", "concentration at 0.5 h": "2.67 µM"}

// next item, concentration at 0.5 h requested
Return concentration at 0.5 h for the following compound: CCCCCCCCCCCCCCCCOCCCOP(=O)(O)CO[C@H](CO)Cn1ccc(N)nc1=O [BCV, Brincidofovir]
3.4 µM

* * *

procedure_summary: in vitro
condition_parameters: male, SD, rat, plasma
Below, each of the compounds is paired with its reported half-life at 0.75 μM value.

These solved cases illustrate the format of a correct answer.
{"compound": "CCCCCCCCCCCCCCCCOCCCOP(=O)(O)OCC1=C[C@H](O)[C@H](n2cnc3c(=O)[nH]c(N)nc32)O1", "half-life at 0.75 μM": "> 9.3 h"}
{"compound": "CCCCCCCCCCCCCCCCOCCCOP(=O)(O)OCC1=CC(O)C(n2ccc(=O)[nH]c2=O)O1 (stereo not drawn)", "half-life at 0.75 μM": "> 9.3 h"}

With those in mind, consider the next compound.
Using the record for CCCCCCCCCCCCCCCCOCCCOP(=O)(O)CO[C@H](CO)Cn1ccc(N)nc1=O , state its measured half-life at 0.75 μM.
> 9.3 h

* * *

procedure_summary: in vitro
condition_parameters: African green monkey
readout_type: CC50

Item Nc1nc2c(ncn2[C@@H]2OC(CO)=CC2O)c(=O)[nH]1 (stereo partly shown) : provide CC50
> 2 mM

* * *

Test system: SARS-CoV
condition_parameters: Vero 76 cells without virus; test compounds
readout_type: CC50 (µM)
Output spec: scalar in µM, unitless text.

Specify reported CC50 for the compound shown: O=c1ccn([C@@H]2OC(CO)=C[C@H]2O)c(=O)[nH]1
1500

* * *

Entries and their measured SI follow.
System: SARS-CoV
condition_parameters: SARS-CoV; SI = CC50/EC50
Response field accepts a number only; no unit should be typed.

{"compound": "Nc1nc2c(ncn2[C@@H]2OC(CO)=CC2O)c(=O)[nH]1 (stereo partly shown)", "assayed_system": "SARS-CoV", "SI": 0}
{"compound": "Nc1ccn([C@@H]2OC(CO)=C[C@H]2O)c(=O)n1 [AB21650, 3′-deoxy-3′,4′-didehydro cytidine]", "assayed_system": "SARS-CoV", "SI": 0}

Next, consider the following compound.
Param request: SI | system SARS-CoV | item O=c1ccn([C@@H]2OC(CO)=C[C@H]2O)c(=O)[nH]1
0

From: patent US12466849B2
